Target: CDK7/Cyclin H/MAT-1 complex (Homo sapiens)
Construct: Human CDK7 (amino acids 1-346); His6 (N); TEV protease cleavage site (N); made in house; host or cells: baculovirus-SF9 insect cells
Sequence (P50613 whole entry, the tested form may be a part): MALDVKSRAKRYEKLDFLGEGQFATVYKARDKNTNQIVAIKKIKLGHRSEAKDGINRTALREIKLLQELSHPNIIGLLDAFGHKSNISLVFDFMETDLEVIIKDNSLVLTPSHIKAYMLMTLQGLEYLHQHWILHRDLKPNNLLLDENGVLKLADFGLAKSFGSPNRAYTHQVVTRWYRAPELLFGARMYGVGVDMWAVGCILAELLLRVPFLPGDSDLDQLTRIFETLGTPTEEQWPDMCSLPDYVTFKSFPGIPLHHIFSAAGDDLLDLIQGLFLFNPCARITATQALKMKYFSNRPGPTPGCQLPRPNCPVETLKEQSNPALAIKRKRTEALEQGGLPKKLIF
Sequence (P51946 whole entry partner, the tested form may be a part): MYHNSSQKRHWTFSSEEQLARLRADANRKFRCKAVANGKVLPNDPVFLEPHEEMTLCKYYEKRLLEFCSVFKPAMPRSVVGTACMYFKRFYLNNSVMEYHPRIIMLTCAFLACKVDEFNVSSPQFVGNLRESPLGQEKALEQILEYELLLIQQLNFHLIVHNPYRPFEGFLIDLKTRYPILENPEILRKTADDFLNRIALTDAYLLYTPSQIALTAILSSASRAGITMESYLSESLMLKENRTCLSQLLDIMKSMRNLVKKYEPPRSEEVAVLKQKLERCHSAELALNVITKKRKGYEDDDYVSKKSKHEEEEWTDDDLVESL
Sequence (P51948 whole entry partner, the tested form may be a part): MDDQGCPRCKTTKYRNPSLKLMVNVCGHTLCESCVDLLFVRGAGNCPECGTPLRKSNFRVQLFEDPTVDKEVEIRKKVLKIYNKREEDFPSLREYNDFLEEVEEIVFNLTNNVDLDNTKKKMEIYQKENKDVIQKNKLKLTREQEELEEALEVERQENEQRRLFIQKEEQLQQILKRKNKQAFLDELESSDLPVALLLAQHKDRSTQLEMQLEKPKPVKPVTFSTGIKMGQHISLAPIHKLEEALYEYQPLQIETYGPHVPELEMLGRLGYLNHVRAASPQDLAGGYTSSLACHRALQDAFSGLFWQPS
Assay: Absorbance kinetic assay (20 nM CDK7/Cyclin H/MAT-1 complex)
Assay type: biochemical
result.type: CDK7 (20 nM) pIC50

CO[C@H]1CC[C@@H](Nc2ncc3c(n2)CN(C(=O)[C@H]2CCN(C)C[C@@H]2c2ccccc2)[C@H](C)C3)CC1 = 7.46
CN1CCN(C(=O)N2Cc3nc(NC4CCOCC4)ncc3CC2(C)C)[C@@H](c2ccccc2)C1 = 7.89
CC(C)N1CC[C@H](C(=O)N2Cc3nc(NC4CCOCC4)ncc3C[C@H]2C)[C@@H](c2ccc(Cl)c(F)c2)C1 (single isomer, unassigned) = 6.95
C[C@H]1Cc2cnc(NC3(c4ccccc4)COC3)cc2CN1C(=O)[C@H]1CCN(C)C[C@@H]1c1ccccc1 (single isomer, unassigned) = 7.52
C[C@@H]1Cc2cnc(NC3CCN(C4CC4)CC3)nc2CN1C(=O)[C@H]1CCN(C)C[C@@H]1c1ccccc1 = 7.39
